- test-target: T1, mouse GPNMB endogenously expressed on B16F10 cells (mouse, UniProt Q99P91 23-574)
- T1 construct: whole, on cells; also called moGPNMB
- T1 sequence (looked up): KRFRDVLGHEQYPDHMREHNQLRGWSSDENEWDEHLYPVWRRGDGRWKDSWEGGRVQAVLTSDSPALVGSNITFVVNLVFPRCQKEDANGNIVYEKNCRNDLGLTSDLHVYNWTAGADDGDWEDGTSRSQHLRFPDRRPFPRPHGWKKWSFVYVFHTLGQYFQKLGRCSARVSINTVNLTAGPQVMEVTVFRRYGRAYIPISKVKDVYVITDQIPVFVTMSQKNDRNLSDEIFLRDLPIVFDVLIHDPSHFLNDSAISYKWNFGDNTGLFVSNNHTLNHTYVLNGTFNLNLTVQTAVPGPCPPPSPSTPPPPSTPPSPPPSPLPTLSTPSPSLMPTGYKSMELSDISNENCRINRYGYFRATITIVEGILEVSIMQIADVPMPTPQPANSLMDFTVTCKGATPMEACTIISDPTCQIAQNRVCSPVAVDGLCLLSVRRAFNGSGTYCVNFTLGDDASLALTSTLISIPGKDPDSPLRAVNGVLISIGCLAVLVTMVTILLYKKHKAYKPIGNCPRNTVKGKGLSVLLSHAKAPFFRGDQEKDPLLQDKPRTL
- method-summary: FACS titration, B16F10 cells
// reported EC50 per item
Number only, in nM; omit the unit.

Consider the worked cases shown below.
1) anti-GPNMB antibody GPN-33 (antibody, human IgG1, V domains shown, chimeric) VH: EVQLVESGGSLVQPGGSLKLSCVASGYTFSNYWMDWVRQTPGKSLEWIGEINTDGSKTNYAPSIKDRFTISRDNAKSTLYLQMSNVKADDTAIYYCTRGPGAWGQGTSVTVSS VL: DIVMTQTPLSLSVAIGQSASISCKSSQSLKFSDGKTYLNWVFQSPGQSPKRLIYQVSKLDSGVPDRFSGTGSETDFILKISRVEAEDLGVYYCCQGSYSPWTIGGGTKLELK
17.8
2) anti-GPNMB antibody GPN-65 (antibody, human IgG1, V domains shown, chimeric) VH: QLQLQQSGTEVVKPGASVKIPCKASGYAFSSYWMNWVKQRPGKGLEWIGQIYPGDGDTNDNGKFEGKATLTVDKSSNTAYIQLSSLTSEDSAVYFCARSPLHLRGSMDYWGQGTSVTVSS VL: SIVMTQTPKFLLVSAGDRVTITCKASQSVSNDVAWFQQKPGQSPELLIYSASNRYTGVPDRFTGSGYGTDFTFTISTVQAEDLAVYFCQQNYYSPFTFGGGTRLEIK
3.23

Now examine the next entry.
Input anti-GPNMB antibody GPN-43 (antibody, human IgG1, V domains shown, chimeric) VH: EVQLQQSGPELVKPGASVKISCKASGYTFTDYYMNWVRQSHGKSLEWIGDINPYHGGSTYNQKIKVKATLTVDKSSSTAYMELRSLTSEDSAVYYCARNWPYFDYWGQGTTLTVSS VL: DIQMTQSPASLSASVGETVTITCRASENIYSFLVWYQQKQGKSPQLLVYNAKTLAEGVPSRFSGSGSGTQFSLKISSLQPEDFGSYYCQHHFGTPPYTFGGGTKLEIK . Output EC50: 36.2
